The measured values listed here are drawn from the METLIN SMRT retention time set (Domingo-Almenara et al. 2019).

# key: entry, value: RP-LC retention time
ASSAY_NAME: gradient 5% acetonitrile 3 min, to 50% in 2 min, to 85% in 15 min, held 3 min, 100 µL/min
CONDITIONS_USED: column: Zorbax Extend-C18 2.1 x 50 mm; eluents: water / acetonitrile, 0.1% formic acid
Give just the number in s; leave the unit off.

If you can, please state the reported RP-LC retention time value of "COc1ccc(NC(=O)N2CCc3nc(-c4ccc(F)cc4)ncc3C2)cc1" .
906

What would you report for "CCCc1nnc(NC(=O)CSc2ccc(NC(=O)C3CC3)nn2)s1" ?
694

Consider next the compound "CCc1ccccc1NC(=O)CN1C(=O)CCCc2cc(S(=O)(=O)N3CCCC3)ccc21" in the same way.
845

Entry Cc1ccnc(N2CCCC(C(=O)NCc3ccc(N(C)C)cc3)C2)n1 (stereo not given) please
561

Queued: "O=C(c1cn(-c2cc(N3CCSCC3)ncn2)cn1)N1CCN(c2ncccn2)CC1"
739

Lookup "COC(=O)c1ccc(NC(=O)C(=O)NCC2CCN(Cc3ccco3)CC2)cc1"
573

// query: "Cc1csc(-c2cc(S(=O)(=O)N3CCOCC3)cn2CC(=O)N2CCCCC2)n1"
846

Same read-out for CC(C)C(NC(=O)CCc1ccccc1)C(=O)Nc1nc2ccccc2[nH]1 (stereo not given) ?
718

Another compound to check: "Cc1cc(C)c(C(=O)N2CCC(CC(=O)NC3CCCCCC3)CC2)[nH]1"
800

Also need "Fc1ccc(CN(C2=NCCN2)c2c(Cl)cccc2Cl)cc1" , thanks.
760

Lab note: next compound to report on.
Would you mind telling me what RP-LC retention time value was observed for Cc1ccc(C)c(S(=O)(=O)NCc2ccc(C(=O)N3CCCCC3C)cc2)c1 (stereo not given) ?
961

====

ASSAY_NAME: gradient 5% acetonitrile 3 min, to 50% in 2 min, to 85% in 15 min, held 3 min, 100 µL/min
CONDITIONS_USED: column: Zorbax Extend-C18 2.1 x 50 mm; eluents: water / acetonitrile, 0.1% formic acid
Labelling: RP-LC retention time reported below 800 s becomes true (1); at or above becomes false (0).

Please check: RP-LC retention time for O=C(NCC1CCCO1)C(=O)NCC1(O)CCOCC1 (stereo not given) , strictly under 800 s or not?
true (1)

For Cc1ccc(Cl)cc1NC(=O)C1CCCN1S(=O)(=O)c1cc2c(cc1C)NC(=O)CO2 (stereo not given) then?
false (0)

Again, but for CCCCN(CC)CCNC(=O)C1CCC(=O)N(c2ccc(OC)cc2)C1c1ccc(F)cc1 (stereo not given)
true (1)

Request: CCS(=O)(=O)N1CC(=O)N(c2cc(C)ccc2C)C(C)(C(=O)NC2CCCC2)C1 (stereo not given)
false (0)

What would you report for "Cc1cccc(-c2noc(Cc3nc(-c4ccc(F)cc4)cs3)n2)c1" ?
false (0)

Check "Cc1cc(F)ccc1NC(=O)CN1C(=O)NC2(CCCCC2)C1=O" too.
true (1)

Try "COc1ccc(C(=O)N2CCC3(CC2)N=C(c2cccc(Br)c2)NO3)c(OC)c1" next.
false (0)

Also CCC(C)NC(=O)N1CCc2c(c(-c3nc(C)no3)nn2C)C1 (stereo not given) , if possible.
true (1)

====

ASSAY_NAME: gradient 5% acetonitrile 3 min, to 50% in 2 min, to 85% in 15 min, held 3 min, 100 µL/min
CONDITIONS_USED: column: Zorbax Extend-C18 2.1 x 50 mm; eluents: water / acetonitrile, 0.1% formic acid
QUANTITY_KIND: RP-LC retention time
Numeric answer plus unit only.

Value lookup for RP-LC retention time; key = "COc1ccc(-c2cc3n(n2)CCCN(C(=O)c2cccnc2SC)C3)cc1"
788 s

Proceed to "CCC(=O)NCCc1csc(C2CCN(C(=O)C3CCC3)CC2)n1"
679 s

// query: O=c1n(CC2CC2)nc2n1CCC(NS(=O)(=O)c1ccccc1)CC2 (centres undefined)
706 s

What about "Nc1nc(-c2ccc(Cl)cc2)nn1C(=O)C1CC1" ?
945 s

Try this molecule too: "O=C(NCC1(CO)CC1)c1ccc2nsnc2c1"
602 s

Can you handle "O=C(NCCC1CCN(C(=O)Nc2ccc(F)cc2)CC1)c1ccoc1" next?
716 s

What do we get for "CC(C)n1c(=O)c(NCCc2ccccc2)nc2ccncc21" ?
672 s

Note, next up: "Cc1ccc(NS(=O)(=O)c2cc3c(s2)CCN(C(=O)C2CC2)C3)c(F)c1"
828 s

Same read-out for "Cc1cccc(OCCc2noc(C3CN(Cc4ccc(C)s4)C3)n2)c1" ?
761 s

What do we get for "O=C(Nc1cccc(Cl)c1)Nc1ccc2nc3n(c(=O)c2c1)CCCC3" ?
723 s

---
What does the data say about its RP-LC retention time? Entry: CCOc1ccc(NC(=O)C2CC(=O)N(CCc3c[nH]c4ccc(F)cc34)C2)cc1 (centres undefined)
811 s

Please give the result for "COc1cc2c(cc1NC(=O)c1cccs1)n(C)c(=O)n2C" too.
717 s

Input "Cc1nncn1C1CCN(S(=O)(=O)c2ccc(C(C)C)cc2)CC1"
674 s

Next up: "CC1CCN(c2cc(-n3cnc(C(=O)N4CCSCC4)c3)ncn2)CC1"
719 s

Quick one: CCOC(=O)C(CC)SC1=NS(=O)(=O)c2cc(F)ccc2N1 (centres undefined)
758 s

Queued: Cc1cc(C2CCCN2C(=O)c2cc(F)c(F)cc2Cl)no1 (centres undefined)
832 s

Moving on to "CN(C(=O)Cn1cnc2c(-c3ccc(Cl)cc3)csc2c1=O)c1ccc(F)cc1"
1180 s

Please answer likewise for "O=C(Cn1cccc(-c2nc(-c3ccc(Cl)cc3)no2)c1=O)Nc1ccc(F)cc1"
956 s

Next molecule: "COc1ccc(S(=O)(=O)N2CCN(c3cc(C)nc(NC4CCCCC4)n3)CC2)cc1Cl"
851 s

What do we get for "CCOCCCNC(=O)Nc1ccc2c(c1)CCN2S(=O)(=O)c1ccccc1" ?
803 s

Now give it for "CCn1c(=O)sc2cc(S(=O)(=O)N3CCC(C(=O)Nc4cccc(C)n4)CC3)ccc21" too.
768 s

And the next one, "COc1cccc(S(=O)(=O)N2CCc3c(c(CN(C(C)=O)c4ccccc4)nn3C)C2)c1" ?
793 s

// same read-out, input: "O=c1n(Cc2ccc3c(c2)OCO3)nc2c(S(=O)(=O)N3CCCCCC3)cccn12"
921 s

Would you mind doing "COc1cc(OC)cc(C(=O)N(C)CCc2noc(C(=O)NCc3ccccc3)n2)c1" as well?
809 s

Now try "O=c1c2ccccc2ncn1Cc1noc(Cc2ccc(Br)cc2)n1" .
871 s

Input CC(=O)N1c2ccc(S(=O)(=O)N3CCCC3)cc2CC1C(=O)NCCN1CCCCCC1 (centres undefined)
630 s

Lookup "COc1ccc(C2(C(=O)NCCC3CCN(C(=O)Nc4ccccc4F)CC3)CC2)cc1"
837 s

And for "COCCn1c(-c2ccccc2)cnc1SCC(=O)Nc1ccccc1" ?
669 s

Try the molecule Cc1cc(S(=O)(=O)N2CCn3c(nnc3C3CCN(C(C)C)C3)C2)ccc1Cl (centres undefined)
637 s

Please give the result for "COC(=O)c1cc(C2CC2)nc2c1c(=O)n(Cc1ccc(F)cc1)c(=O)n2C" too.
1090 s

Next molecule: "Cc1nn2c(N3CCN(c4ccccn4)CC3)cc(C(C)(C)C)nc2c1-c1ccc(F)cc1"
1090 s
